experiment: qHTS assay to identify small molecule agonists of H2AX - cell viability counter screen (AID 1224847); conditions: CHO-K1 viability, CellTiter-Glo luminescence, 3 h; series mostly up to 154 µM; also: nearly all actives have a fitted effect of over 30% in size; also: potency is read from the fitted curve at half-maximal effect
Results filed as inconclusive are left out. Active and inactive are the calls of the source. Calls follow the shape of the full dose curve.
REPORTED_METRIC: Potency

>  <COMPOUND>
CC1Sc2c(C(=O)O)c(=O)c3cc(F)c(N4CCNCC4)cc3n21 (stereo not drawn)

>  <TEST_VALUE>
inactive

$$$$
>  <COMPOUND>
CC(C)(OO)c1ccccc1

>  <TEST_VALUE>
inactive

$$$$
>  <COMPOUND>
O=[N+]([O-])c1cc(C(F)(F)F)cc([N+](=O)[O-])c1Cl

>  <TEST_VALUE>
inactive

$$$$
>  <COMPOUND>
O=S1OC[C@@H]2[C@H](CO1)[C@]1(Cl)C(Cl)=C(Cl)[C@@]2(Cl)C1(Cl)Cl (stereo partly drawn)

>  <TEST_VALUE>
20.1 µM (active)

$$$$
>  <COMPOUND>
CO/C=C(/C(=O)OC)c1ccccc1COc1cccc(C(F)(F)F)n1

>  <TEST_VALUE>
17.9 µM (active)

$$$$

Task: What value of Potency has been recorded for this entry: Brc1ccccc1
Result: inactive

Task: What value of Potency has been recorded for this entry: C=CC(=O)NCNC(=O)C=C
Result: inactive

Task: What value of Potency has been recorded for this entry: C#CCOC(C(=O)OCCN(C)C)(c1ccccc1)c1ccccc1
Result: inactive

Task: What value of Potency has been recorded for this entry: O=C(Nc1ccccc1)Nc1cnns1
Result: inactive
